- assayed.target: T1, human uPAR displayed on the surface of MDA-MB-231 cells (human, UniProt Q03405 23-305)
- T1 construct: whole, on cells; also called cell-surface uPAR; cellular uPAR
- T1 sequence (Q03405 23-305): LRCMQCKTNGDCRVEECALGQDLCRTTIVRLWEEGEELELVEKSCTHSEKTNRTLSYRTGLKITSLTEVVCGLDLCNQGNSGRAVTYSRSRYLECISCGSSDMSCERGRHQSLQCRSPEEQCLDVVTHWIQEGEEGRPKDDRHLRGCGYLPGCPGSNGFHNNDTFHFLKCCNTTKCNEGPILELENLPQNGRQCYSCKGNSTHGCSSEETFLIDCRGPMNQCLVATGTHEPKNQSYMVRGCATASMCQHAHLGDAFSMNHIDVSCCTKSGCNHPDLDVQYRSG
- test.summary: flow cytometry on MDA-MB-231 cells
Here, each record is paired with measured EC50 data.
value.type: EC50 (µg/mL)

1. Antibody 3159 (antibody, human IgG1, V domains shown, Chimeric: mouse VH/VL linked to Herceptin (trastuzumab) human IgG1 / kappa constant regions) VH: QVTLKESGPGILQSSLTLSLTCSLSGFSLSTSGMGVSWIRQPSGKGLEWLAHIYWDDDKRYNPSLKTRLTISKDASRDQVFLKIISVDTADTGTYYCGRRVRNYFSGTSYWYFDVWGTGTTVTVSS VL: DVLMTQTPLSLSVSLGDQASISCRSSQNILHRTGNTYLEWYLQKPGQSPKLLIYKVSNRFSGVPDRFSGSGSGTDFTLKISRLEAEDLGVYYCFQGSYVPFTFGSGTKLEMK: 0.188
2. 11857 HC1 + LC3 (humanized) (antibody, V domains shown, detected with anti-human Fc antibody) VH: EVQLVQSGAEVKKPGATVKISCKVSGYTFTDYYMNWVQQAPGKSLEWMGNINPNNGGTDYNQKFQGRVTITADKSTSTAYMELSSLRSEDTAVYYCARSYGSRFPYWGLGTLVTVSS VL: DIQMTQSPSSLSASVGDRVTITCRASQDITNYLSWFQQKPGGTVKLLIYYTAVLQSGFPSRFSGSGSGADFTLTISSLQPEDFATYYCQQGHTLPWTFGGGTKVEIK: 1.21
3. 3159 HC1 + LC3 (humanized) (antibody, V domains shown, detected with anti-human Fc antibody) VH: QVTLRESGPALVKPTQTLTLTCTLSGFSLSTSGMGVSWIRQPPGKALEWLAHIYWDDDKRYSTSLKTRLTISKDASKDQVVLTMTNMDTVDTATYYCGRRVRNYFSGTSYWYFDVWGTGTLVTVSS VL: DIVMTQSPLSLPVTPGEPASISCRSSQNILHRTGNTYLDWYLQKPGQSPQLLIYKVSNRFSGVPDRFSGSGSGTDFTLKISRVEAEDVGVYYCFQGSYVPFTFGQGTKLEIK: 0.27
